Data provenance: patent US20110206607A1

Experimental system: human CB2 (Homo sapiens, UniProt P34972)
Construct: expressed in transfected cells; host or cells: HEK-293T (transient transfection, membrane preparation)
Sequence (P34972 whole entry): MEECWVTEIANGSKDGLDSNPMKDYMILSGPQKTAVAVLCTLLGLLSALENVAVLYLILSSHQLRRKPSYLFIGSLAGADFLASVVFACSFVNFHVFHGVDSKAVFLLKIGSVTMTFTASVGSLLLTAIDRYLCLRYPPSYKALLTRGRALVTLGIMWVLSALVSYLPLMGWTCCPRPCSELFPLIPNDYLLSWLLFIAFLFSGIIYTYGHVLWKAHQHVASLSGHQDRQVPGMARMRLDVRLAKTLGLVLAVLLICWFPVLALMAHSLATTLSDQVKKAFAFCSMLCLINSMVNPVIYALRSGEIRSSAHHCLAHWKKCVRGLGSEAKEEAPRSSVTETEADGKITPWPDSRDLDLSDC
Procedure details: CB2 receptor binding assay, block of [3H]-CP 55,940 binding
Test parameters: membranes of HEK-293T cells transfected with human CB2 cDNA; 1.5 nM [3H]-CP 55,940
Measurement type: pKi

• CCc1cccc2nc(-c3c(F)cccc3Cl)c(Nc3ccc4c(c3)OCCO4)n12 = 7.4
• Fc1cccc(Cl)c1-c1nc2ccccn2c1Nc1ccc2c(c1)OCO2 = 6.7
• COc1cc(-c2nc3cccc(C)n3c2Nc2ccc3c(c2)OCCO3)ccc1O = 6.5
• Clc1cccc(Cl)c1-c1nc2cnccn2c1Nc1ccc2c(c1)OCCO2 = 6.6
• COc1cc(-c2nc3cccc(C)n3c2Nc2ccc3c(c2)OCCO3)ccc1OCCF = 6.6
• COc1ccnc2nc(-c3c(C)cc(OCCF)cc3C)c(Nc3ccc4c(c3)OCCO4)n12 = 6.8
• Cc1cccc2nc(-c3c(F)cccc3Cl)c(Nc3ccc4c(c3)OCO4)n12 = 7.3
• COc1cccc2nc(-c3c(Cl)cc(O)cc3Cl)c(Nc3ccc4c(c3)OCCO4)n12 = 8.2
• COc1cccc2nc(-c3c(C)cc(OCCO)cc3C)c(Nc3ccc4c(c3)OCCO4)n12 = 8.3
